Relaxation by entry:
target: UniProt Q62758; assay: Antagonistic activity by ability to block serotonin induced relaxation (mediated by activation of 5-hydroxytryptamine 4 receptor) in carbamylcholine (10e-6 M) contracted esophagus at a concentration of 10e-6 M.; format: functional, tissue-based
Sequence (Q62758 whole entry): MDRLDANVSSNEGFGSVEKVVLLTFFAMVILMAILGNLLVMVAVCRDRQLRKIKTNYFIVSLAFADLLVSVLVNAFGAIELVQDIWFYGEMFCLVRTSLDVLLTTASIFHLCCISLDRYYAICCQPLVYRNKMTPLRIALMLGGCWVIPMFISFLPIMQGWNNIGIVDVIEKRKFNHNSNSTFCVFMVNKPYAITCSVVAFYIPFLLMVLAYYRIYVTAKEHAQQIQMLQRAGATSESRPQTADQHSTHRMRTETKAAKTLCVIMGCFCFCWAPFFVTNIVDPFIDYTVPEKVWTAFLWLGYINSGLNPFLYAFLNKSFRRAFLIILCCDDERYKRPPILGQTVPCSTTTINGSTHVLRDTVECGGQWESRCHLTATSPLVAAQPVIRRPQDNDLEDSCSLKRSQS
Supply the numeric figure in %, leaving out any unit text.

Prompt: Relaxation for CC(C)n1nc(C(=O)NCCN2CCOCC2)c2ccccc21 ?
Completion: 19.8

Prompt: Next compound: CC(C)n1nc(C(=O)NC2CCN(CCCCc3ccccc3)CC2)c2ccccc21
Completion: 4

* * *

molecular target: 5-hydroxytryptamine receptor 4 (Rattus norvegicus); test: Antagonistic activity by ability to block serotonin induced relaxation (mediated by activation of 5-hydroxytryptamine 4 receptor) in carbamylcholine (10e-6 M) contracted esophagus at a concentration of 10e-6 M.; type: functional, tissue-based
Experimental Endpoint: Relaxation
Write the numeric value and follow it with the unit.

Use these answered entries as a reference point.
| Compound | Tested System | Relaxation |
| --- | --- | --- |
| CCN(CC)CCNC(=O)c1nn(C(C)C)c2ccccc12 | 5-hydroxytryptamine receptor 4 (Rattus norvegicus) | 26.8% |
| CCC(C)n1c(=O)n(C(=O)NC2CC3CCC(C2)N3C)c2ccccc21 (centres undefined) | 5-hydroxytryptamine receptor 4 (Rattus norvegicus) | 8.8% |
| CN1C2CCC1CC(NC(=O)c1c[nH]c3ccccc13)C2 (centres undefined) | 5-hydroxytryptamine receptor 4 (Rattus norvegicus) | 60% |

From here, focus on the item given below.
Prompt: Relaxation for CN1C2CCC1CC(NC(=O)c1cn(C)c3ccccc13)C2 (centres undefined) ?
Completion: 47.3%
